Hey, just so you know, these numbers are from patent US9315520B2.

Target: BACE1 (Homo sapiens (Human))
Sequence (P56817 46-457): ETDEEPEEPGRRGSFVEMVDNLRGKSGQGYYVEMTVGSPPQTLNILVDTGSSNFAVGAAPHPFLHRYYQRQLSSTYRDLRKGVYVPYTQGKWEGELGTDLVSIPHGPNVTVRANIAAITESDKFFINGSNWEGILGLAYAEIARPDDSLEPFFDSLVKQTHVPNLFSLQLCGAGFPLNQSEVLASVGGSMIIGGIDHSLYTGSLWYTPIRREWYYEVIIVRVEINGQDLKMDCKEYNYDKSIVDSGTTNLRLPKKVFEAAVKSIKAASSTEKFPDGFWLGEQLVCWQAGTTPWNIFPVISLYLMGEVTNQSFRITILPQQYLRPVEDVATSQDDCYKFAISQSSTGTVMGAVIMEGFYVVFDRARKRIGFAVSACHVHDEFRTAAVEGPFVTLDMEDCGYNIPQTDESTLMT
Assay: BACE1 Cell-Free Assay (fluorescence polarization)
Type: biochemical
Conditions: Table 4; read-out: BACE1 Cell Free IC50
true (1) if IC50 is below 9 nM. false (0) if not; exact matches included in false (0).

Examples from the recorded data:
C[C@H]1C[C@H]2CSC(N)=N[C@@]2(c2nc(NC(=O)c3ccc(OC(F)F)cn3)ccc2F)CO1 [Comparator 2] ... false (0)
C[C@H]1C[C@H]2CSC(N)=N[C@@]2(c2nc(NC(=O)c3cnc(OC(F)F)cn3)cs2)CO1 ... false (0)
Cc1cc(OC(F)F)cnc1C(=O)Nc1csc([C@]23CO[C@@H](C)C[C@H]2CSC(N)=N3)n1 ... false (0)
NC1=N[C@@]2(c3cc(NC(=O)c4ccc(OC(F)F)cn4)ccc3F)CO[C@@H](C(F)(F)F)C[C@H]2CS1 [Comparator 6, reference compound] ... true (1)
C[C@H]1C[C@H]2CSC(N)=N[C@@]2(c2cc(NC(=O)c3ccc(Cl)cn3)ccc2F)CO1 [Comparator 7, reference compound] ... true (1)

Kindly consider the entry below.
Input: Would you kindly verify if IC50 of C[C@H]1C[C@H]2CSC(N)=N[C@@]2(c2nc(NC(=O)c3ccc(OC(F)F)cn3)ccc2F)CO1 [Comparator 3, reference compound] is strictly less than 9 nM?
Output: true (1)
